These measurements were taken from ChEMBL document CHEMBL1127040.

Property: k obs / 1; scope: individual molecules
SYSTEM: Neutrophil elastase (Homo sapiens) (UniProt P08246)
Sequence (P08246 whole entry): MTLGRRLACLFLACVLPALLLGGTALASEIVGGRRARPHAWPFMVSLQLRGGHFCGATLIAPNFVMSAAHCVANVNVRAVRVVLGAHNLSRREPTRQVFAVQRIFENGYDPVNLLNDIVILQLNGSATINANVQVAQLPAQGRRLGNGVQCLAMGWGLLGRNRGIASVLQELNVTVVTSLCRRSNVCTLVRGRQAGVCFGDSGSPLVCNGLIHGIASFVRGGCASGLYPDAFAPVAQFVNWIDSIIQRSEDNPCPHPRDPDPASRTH
MEASUREMENT_NOTES: Inhibition of Human Leukocyte Elastase, activity is expressed as biomolecular rate constant

MOLECULE	k obs / 1 [M⁻¹ s⁻¹]
CCC1(CC)C(=O)N(C(=O)NCc2ccccc2)C1Oc1ccc(SC)cc1 (stereo not given)	3500
CCC1(CC)C(=O)N(C(=O)NCc2ccccc2)C1Oc1ccc(C(=O)O)c2ccccc12 (stereo not given)	2000
CCC1(CC)C(=O)N(C(=O)NCc2ccccc2)C1Oc1ccc(C(O)C(=O)O)cc1 (stereo not given)	2100
CCC1(CC)C(=O)N(C(=O)NCc2ccccc2)C1Oc1ccc(C(=O)O)c(C(=O)O)c1 (stereo not given)	570
CCC1(CC)C(=O)N(C(=O)NCc2ccccc2)C1Oc1cccc(NC(=O)CCC(=O)O)c1 (stereo not given)	2700
